Reported pIC50 values are given for each entry in this list.
# Test system: THP-1 cells
# assay-remarks: TNFα generation assay
# Type: cell-based, human
# settings: Homo sapiens, THP-1, THP-1 cells; Table 22; read-out: IC50 in TNFα generation assay
pIC50: −log10 of the molar value.
observable: pIC50

{"molecule": "COc1cc(Nc2nc(N[C@H](C)[C@H](C)N)c(F)cc2C(N)=O)cc(OC)n1 (racemic)", "measured-target": "THP-1 cells", "reported": "6.89 to 7.19"}
{"molecule": "Cc1nn(C)c2cc(Nc3nc(N[C@H](CC4CC4)[C@H](C)N)c(F)cc3C(N)=O)ccc12", "measured-target": "THP-1 cells", "reported": "6.89 to 7.19"}
{"molecule": "CCC[C@@H](Nc1nc(Nc2cncc(C)c2)c(C(N)=O)cc1F)[C@H](C)N", "measured-target": "THP-1 cells", "reported": "6.89 to 7.19"}
{"molecule": "C[C@H](N)[C@@H](C)Nc1nc(Nc2ccc3c(cnn3C)c2)c(C(N)=O)cc1F (racemic)", "measured-target": "THP-1 cells", "reported": "6.89 to 7.19"}
{"molecule": "CCCC[C@@H](Nc1nc(Nc2ccc3c(cnn3CC)c2)c(C(N)=O)cc1F)[C@H](C)N", "measured-target": "THP-1 cells", "reported": "6.89 to 7.19"}
{"molecule": "CCCC[C@H](CN)Nc1nc(Nc2ccc3cnn(C)c3c2)c(C(N)=O)cc1F", "measured-target": "THP-1 cells", "reported": "6.89 to 7.19"}
{"molecule": "COCCn1cc2cc(Nc3nc(N[C@@H]4CCCC[C@@H]4N)c(F)cc3C(N)=O)ccc2n1 (relative stereo)", "measured-target": "THP-1 cells", "reported": "6.70 to 6.89"}
{"molecule": "Cc1cc(Nc2nc(N[C@@H]3CCCC[C@@H]3N)c(F)cc2C(N)=O)ccn1", "measured-target": "THP-1 cells", "reported": "6.89 to 7.19"}
{"molecule": "NC(=O)c1cc(F)c(N[C@@H]2CCCC[C@@H]2N)nc1Nc1cc([N+](=O)[O-])c2[nH]ccc2c1 (relative stereo)", "measured-target": "THP-1 cells", "reported": "6.89 to 7.19"}
{"molecule": "NC(=O)c1cc(F)c(N[C@@H]2CCCC[C@@H]2N)nc1Nc1ccc2c(c1)c(F)nn2C1CC1", "measured-target": "THP-1 cells", "reported": "6.70 to 6.89"}
{"molecule": "C[C@H](N)[C@@H](CC1CC1)Nc1nc(Nc2ccc3c(cnn3C)c2)c(C(N)=O)cc1F", "measured-target": "THP-1 cells", "reported": "6.89 to 7.19"}
{"molecule": "NC(=O)c1cc(F)c(N[C@@H]2CCCC[C@@H]2N)nc1Nc1cncc(-c2ccc[nH]2)c1 (relative stereo)", "measured-target": "THP-1 cells", "reported": "6.89 to 7.19"}
{"molecule": "CC[C@@H](Nc1nc(Nc2cncc(-c3ccc(OC)cc3F)c2)c(C(N)=O)cc1F)[C@H](C)N", "measured-target": "THP-1 cells", "reported": "6.89 to 7.19"}
{"molecule": "Cn1cnc2cc(Nc3nc(N[C@@H]4CCCC[C@@H]4N)c(F)cc3C(N)=O)cnc21", "measured-target": "THP-1 cells", "reported": "6.70 to 6.89"}
{"molecule": "NC(=O)c1cc(F)c(NC2CCCCC2N)nc1Nc1cccc2[nH]ncc12 (centres unmarked)", "measured-target": "THP-1 cells", "reported": "6.89 to 7.19"}
{"molecule": "NC(=O)c1cc(F)c(NC2CCCCC2N)nc1Nc1ccc2c(c1)c(F)nn2CCF (centres unmarked)", "measured-target": "THP-1 cells", "reported": "6.89 to 7.19"}
{"molecule": "NC(=O)c1cc(F)c(N[C@@H]2CCCC[C@@H]2N)nc1Nc1ccccc1 (relative stereo)", "measured-target": "THP-1 cells", "reported": "6.89 to 7.19"}
{"molecule": "CC[C@@H](Nc1nc(Nc2ccc3cccnc3c2)c(C(N)=O)cc1F)[C@H](C)N", "measured-target": "THP-1 cells", "reported": "> 7.19"}
{"molecule": "COCCOc1cc(Nc2nc(N[C@H](CC(C)C)[C@H](C)N)c(F)cc2C(N)=O)ccn1", "measured-target": "THP-1 cells", "reported": "6.70 to 6.89"}
{"molecule": "CCCOc1cc(Nc2nc(N[C@@H]3CCCC[C@@H]3N)c(F)cc2C(N)=O)ccn1", "measured-target": "THP-1 cells", "reported": "> 7.19"}
{"molecule": "COCCOc1cccc(-c2cncc(Nc3nc(N[C@@H]4CCCC[C@@H]4N)c(F)cc3C(N)=O)c2)c1 (relative stereo)", "measured-target": "THP-1 cells", "reported": "6.70 to 6.89"}
{"molecule": "CCC[C@@H](Nc1nc(Nc2cnc(C)c(-n3nccn3)c2)c(C(N)=O)cc1F)[C@H](C)N", "measured-target": "THP-1 cells", "reported": "6.89 to 7.19"}
{"molecule": "NC(=O)c1cc(F)c(N[C@@H]2CCCC[C@@H]2N)nc1Nc1cncc(-n2cccn2)c1 (relative stereo)", "measured-target": "THP-1 cells", "reported": "> 7.19"}
{"molecule": "Cc1ncc(Nc2nc(N[C@H](CC3CC3)[C@H](C)N)c(F)cc2C(N)=O)cc1-n1nccn1", "measured-target": "THP-1 cells", "reported": "6.70 to 6.89"}
{"molecule": "NCC(CCC(F)(F)F)Nc1nc(Nc2ccc3ncccc3c2)c(C(N)=O)cc1F (centres unmarked)", "measured-target": "THP-1 cells", "reported": "6.70 to 6.89"}
{"molecule": "NC(=O)c1cc(F)c(NC2CCCCC2N)nc1Nc1ccnc(-c2ccc3cnccc3c2)c1 (centres unmarked)", "measured-target": "THP-1 cells", "reported": "6.70 to 6.89"}
{"molecule": "NC(=O)c1cc(F)c(NC2CCCCC2N)nc1Nc1ccc2c(F)nn(CCF)c2c1 (centres unmarked)", "measured-target": "THP-1 cells", "reported": "6.89 to 7.19"}
{"molecule": "COc1cc(Nc2nc(N[C@H](C3CC3)[C@H](C)N)c(F)cc2C(N)=O)ccn1", "measured-target": "THP-1 cells", "reported": "6.89 to 7.19"}
{"molecule": "NC(=O)c1cc(F)c(N[C@@H]2CCCC[C@@H]2N)nc1Nc1cncc(-c2ccc(N)cc2)c1 (relative stereo)", "measured-target": "THP-1 cells", "reported": "6.89 to 7.19"}
